Origin of the recorded values: ChEMBL document CHEMBL4689842

Tested on: HEK-293T
Test: Multiplex assay against HEK293T
Type: toxicity, cell-based
Details: human, 48 h, 10 µM, compound concentration 10 uM, replicate 1
Please respond with reported Total Cell Count for every item in the list.
Answer with a bare number; do not write a unit.

Query (molecule): `CCc1ccc(OCc2ccccc2C(=O)Nc2ccc3nc(C)cc(N)c3c2)cc1.Cl` ; field requested: Total Cell Count 132

So what's the measured Total Cell Count for this one? `COc1cc(Nc2nccc(-c3cnn4nc(OC)ccc34)n2)cc(C(F)(F)F)c1` 331

Give its Total Cell Count value. Item: C#Cc1cccc(Nc2ncnc3cc(OCCOC)c(OCCOC)cc23)c1 [ERLOTINIB] 254

Can you share its Total Cell Count? I mean this molecule: `CC(C)OC(=O)N1CCC(Oc2ncnc3c2cnn3-c2ccc(S(C)(=O)=O)cc2F)CC1` 237

Request the reported Total Cell Count associated with CN1CCN(Cc2ccc(Nc3ncc(Cl)c(Nc4ccccc4S(=O)(=O)N(C)C)n3)cc2)CC1 [DUBERMATINIB] 267

Fill in the blank: the reported Total Cell Count of Cc1ccccc1C(c1ccccc1C)N1C2CCC1CC(O)(c1ccccc1)C2 (stereo not drawn) is ____. 372

Would you kindly share the measured Total Cell Count for `CC(C)Oc1ccccc1C(=O)Nc1ccccc1C(=O)Nc1cccc(S(=O)(=O)C(F)(F)F)c1` ? 401

Can you share its Total Cell Count? I mean this molecule: Cc1c[nH]c2nccc(Oc3c(F)cc(Nc4cc(Cl)nc(N)n4)cc3F)c12 [BAY-549] 330

* * *

System: U2OS
Assay: Multiplex assay against U2OS
Format: toxicity, cell-based
Details: human, 12 h, 1 µM, compound concentration 1 uM, replicate 1
Use 70% as the dividing line for Population Healthy Nuclei (%), with the line itself on the Met side and lower values as Not met.

Has `CNC(=O)Nc1ccc(-c2nc(N3CC4CCC(C3)O4)c3cnn(C4CCC5(CC4)OCCO5)c3n2)cc1` a recorded Population Healthy Nuclei (%) greater than or equal to 70%? Not met

Exam item: decide whether the reported Population Healthy Nuclei (%) for Cc1ccccc1C(c1ccccc1C)N1C2CCC1CC(O)(c1ccccc1)C2 (stereo not drawn) is at least 70%. Met

Exam item: decide whether the reported Population Healthy Nuclei (%) for `O=c1cc(N2CCOCC2)oc2c(-c3cccc4c3sc3ccccc34)cccc12` is at least 70%. Met

Given the entry CNC(=O)Nc1ccc2c(c1)[C@@]1(CC2)OC(=O)N(CC(=O)N(Cc2ccc(F)cc2)[C@@H](C)C(F)(F)F)C1=O [A-486] , answer whether its Population Healthy Nuclei (%) meets or surpasses 70%. Met

# bool: Population Healthy Nuclei (%) of Cc1c[nH]c2nccc(Oc3c(F)cc(Nc4cc(Cl)nc(N)n4)cc3F)c12 [BAY-549] >= 70% Not met

Please indicate if the recorded Population Healthy Nuclei (%) for COc1cc2ncn(-c3cc(OCc4ccccc4C(F)(F)F)c(C(N)=O)s3)c2cc1OC [GW843682X] meets or exceeds 70%. Met

Is reported Population Healthy Nuclei (%) greater than or equal to 70% here: `CC(C)Oc1ccccc1C(=O)Nc1ccccc1C(=O)Nc1cccc(S(=O)(=O)C(F)(F)F)c1` Not met

Determine whether this compound has Population Healthy Nuclei (%) no lower than 70%: CC(C)c1noc(N2CCC(COc3ccc(-c4ccc(S(C)(=O)=O)cc4)nc3)CC2)n1 [GSK-1292263] Not met

* * *

System: HEK-293T
Test: Multiplex assay against HEK293T
Assay type: toxicity, cell-based
Details: human, 48 h, 10 µM, compound concentration 10 uM, replicate 1
Recorded endpoint: Population Normal (%)
Answer with a number only, understood to be in %.

For the compound shown here, `O=c1cc(N2CCOCC2)oc2c(-c3cccc4c3sc3ccccc34)cccc12` , give the reported Population Normal (%). 82

What measured Population Normal (%) goes with CCc1nn(CCCN2CCN(c3cccc(Cl)c3)CC2)c(=O)n1CCOc1ccccc1.Cl [NEFAZODONE HYDROCHLORIDE] ? 84

Recorded Population Normal (%) of COc1cc2ncn(-c3cc(OCc4ccccc4C(F)(F)F)c(C(N)=O)s3)c2cc1OC [GW843682X] , please. 87

Can you look up the measured Population Normal (%) of C#Cc1cccc(Nc2ncnc3cc(OCCOC)c(OCCOC)cc23)c1 [ERLOTINIB] for me? 79

* * *

Test system: HEK-293T
Test: Multiplex assay against HEK293T
Format: toxicity, cell-based
Details: human, 24 h, 1 µM, compound concentration 1 uM, replicate 1
Consider the cut-off 2%. If the recorded Population Membrane Permeable-Phenotype (%) is strictly smaller, the label is Criterion met; if not, the label is Criterion not met.

Is it true that Population Membrane Permeable-Phenotype (%) reported for `CN1CCN(Cc2ccc(Nc3ncc(Cl)c(Nc4ccccc4S(=O)(=O)N(C)C)n3)cc2)CC1` is less than 2%? Criterion met

Lab note: confirm whether the reported Population Membrane Permeable-Phenotype (%) for this molecule is below 2%, equality not counting. molecule: COc1cc2ncn(-c3cc(OCc4ccccc4C(F)(F)F)c(C(N)=O)s3)c2cc1OC [GW843682X] Criterion not met

Regarding CCc1nn(CCCN2CCN(c3cccc(Cl)c3)CC2)c(=O)n1CCOc1ccccc1.Cl [NEFAZODONE HYDROCHLORIDE] , kindly confirm whether its Population Membrane Permeable-Phenotype (%) is beneath 2%. Criterion not met

Please check: Population Membrane Permeable-Phenotype (%) for Cc1ccc2c(c1)c1c(n2CCc2ccc(C)nc2)CCN(C)C1 [LATREPIRDINE] , strictly under 2% or not? Criterion met

Lab note: Population Membrane Permeable-Phenotype (%) threshold 2%. Does this molecule come in strictly under it? `COc1ccc(-c2ccc3ncc4c(c3c2)n(-c2ccc(N3CCNCC3)c(C(F)(F)F)c2)c(=O)n4C)cn1.O=C(O)/C=C\C(=O)O` Criterion not met

API: query returns whether the molecule falls strictly under 2% in Population Membrane Permeable-Phenotype (%). Query: `CC(C)OC(=O)N1CCC(Oc2ncnc3c2cnn3-c2ccc(S(C)(=O)=O)cc2F)CC1` Criterion not met

Please state whether Population Membrane Permeable-Phenotype (%) is below 2% for O=C(c1cc2c(cc1F)OC(c1ccc(F)cc1)(c1ccc(Cl)cc1Cl)O2)N1CCOCC1 (configuration not stated) Criterion met

Answer whether the molecule CC1=C(C(=O)Nc2cc3cn[nH]c3cc2F)C(c2ccc(C(F)(F)F)cc2)CC(=O)N1 (configuration not stated) has Population Membrane Permeable-Phenotype (%) strictly less than 2% Criterion not met

For this molecule, is Population Membrane Permeable-Phenotype (%) lower than 2%? Cc1cccc(CN2CCN(C(c3ccccc3)c3ccc(Cl)cc3)CC2)c1.Cl.Cl (configuration not stated) Criterion met

Does this molecule meet the criterion Population Membrane Permeable-Phenotype (%) < 2%? `COC(=O)C1=C(C)NC(C)=C(C(=O)OCCCN2CCC(c3ccccc3)(c3ccccc3)CC2)[C@H]1c1cccc([N+](=O)[O-])c1` Criterion met

Just wondering, is Population Membrane Permeable-Phenotype (%) of `COc1ccccc1CN[C@H]1C2CCN(CC2)[C@H]1C(c1ccccc1)c1ccccc1` below 2%? Criterion not met

Check if Population Membrane Permeable-Phenotype (%) falls below 2% for `O=c1[nH]c2ccccc2n1C1CCN(Cc2ccc(-c3[nH]c4cc5ncnc5cc4nc3-c3ccccc3)cc2)CC1` . Criterion not met

* * *

Tested on: U2OS
Assay: Multiplex assay against U2OS
Assay type: toxicity, cell-based
Settings: human, 48 h, 1 µM, compound concentration 1 uM, replicate 2
Could you label it label 1 if measured Population Pyknosed Nuclei (%) is 6% or higher, and label 0 otherwise?

Textbook exercise: given the entry `COc1ccc(-c2ccc3ncc4c(c3c2)n(-c2ccc(N3CCNCC3)c(C(F)(F)F)c2)c(=O)n4C)cn1.O=C(O)/C=C\C(=O)O` , state whether its Population Pyknosed Nuclei (%) is greater than or equal to 6%. label 1

Please tell me: is the compound Cc1ccc2c(c1)c1c(n2CCc2ccc(C)nc2)CCN(C)C1 [LATREPIRDINE] at or over 6% in terms of Population Pyknosed Nuclei (%)? label 1

Exam item: decide whether the reported Population Pyknosed Nuclei (%) for `CC(C)c1noc(N2CCC(COc3ccc(-c4ccc(S(C)(=O)=O)cc4)nc3)CC2)n1` is at least 6%. label 0

Textbook exercise: given the entry `COC(=O)C1=C(C)NC(C)=C(C(=O)OCCCN2CCC(c3ccccc3)(c3ccccc3)CC2)[C@H]1c1cccc([N+](=O)[O-])c1` , state whether its Population Pyknosed Nuclei (%) is greater than or equal to 6%. label 1

* * *

Please go through the items and note down their Population Mitotic Cells (%).
Test system: U2OS
Assay: Multiplex assay against U2OS
Assay type: toxicity, cell-based
Settings: human, 48 h, 1 µM, compound concentration 1 uM, replicate 1
Reply with just the number (in %).

Dear colleague, I am looking for the recorded Population Mitotic Cells (%) of the following molecule: `COc1cc(Nc2nccc(-c3cnn4nc(OC)ccc34)n2)cc(C(F)(F)F)c1` 46

Would you kindly share the measured Population Mitotic Cells (%) for COc1cc2ncn(-c3cc(OCc4ccccc4C(F)(F)F)c(C(N)=O)s3)c2cc1OC [GW843682X] ? 28

Entry CN1CCN(Cc2ccc(Nc3ncc(Cl)c(Nc4ccccc4S(=O)(=O)N(C)C)n3)cc2)CC1 [DUBERMATINIB] : reported Population Mitotic Cells (%) = ? 17

Param item = CC(C)c1noc(N2CCC(COc3ccc(-c4ccc(S(C)(=O)=O)cc4)nc3)CC2)n1 [GSK-1292263] ; retrieve measured Population Mitotic Cells (%). 57

Reported Population Mitotic Cells (%), molecule CC1=C(C(=O)Nc2cc3cn[nH]c3cc2F)C(c2ccc(C(F)(F)F)cc2)CC(=O)N1 (configuration not stated) : ____ 65

Looking for the measured Population Mitotic Cells (%) of `O=c1cc(N2CCOCC2)oc2c(-c3cccc4c3sc3ccccc34)cccc12` , can you help? 56

Return reported Population Mitotic Cells (%); argument: CC(C)(C)NC[C@H](O)COc1nsnc1N1CCOCC1 [TIMOLOL] 76
